Tested on: kochia
test_summary: Test A pre-/postemergence herbicide test
Format: in vivo, Kochia scoparia
stated_conditions: Preemergence, 125 g ai/ha; 0 to 100 scale where 0 is no effect and 100 is complete control
property_label: Plant response rating, Kochia
Form rule: numeric answer, no unit written next to it.

| compound | Plant response rating, Kochia |
| --- | --- |
| O=C1NCC(c2cccc(Oc3ccccc3)c2)C1C(=O)Nc1ccccc1F (stereo not drawn) | 20 |
| O=C1NCC(c2cccc(C(F)(F)F)c2)C1C(=O)Nc1cccc(Cl)c1F (stereo not drawn) | 0 |
| Cc1cccc(NC(=O)C2C(=O)NCC2c2cccc(C(F)(F)F)c2)c1 (stereo not drawn) | 0 |

Inquiry: Requested field: Plant response rating, Kochia. Item: CN1CC(c2ccc(F)cc2)C(C(=O)Nc2cccc(F)c2F)C1=O (stereo not drawn)
Reply text: 50

Inquiry: Requested field: Plant response rating, Kochia. Item: O=C1NCC(c2cc3ccccc3s2)C1C(=O)Nc1ccccc1F (stereo not drawn)
Reply text: 0

Inquiry: Requested field: Plant response rating, Kochia. Item: O=C1NCC(c2cccc(C(F)(F)F)c2)C1C(=O)Nc1ccccc1Cl (stereo not drawn)
Reply text: 20

====

Tested on: corn
test_summary: Test A pre-/postemergence herbicide test
Type: in vivo, Zea mays
stated_conditions: Postemergence, 500 g ai/ha
Please use 1 (yes) whenever Corn plant response rating (0 to 100 scale, 0 is no effect, 100 is complete control) is not below 50, and 0 (no) whenever it is.

// known answers, use as guide
| compound | category_label |
| --- | --- |
| CON(C(=O)C1C(=O)NCC1c1ccc(F)c(F)c1)c1cc([N+](=O)[O-])ccc1F (centres unmarked) | 0 (no) |
| O=C1NCC(c2cccc(C(F)(F)F)c2)C1C(=O)Nc1ccccc1Cl (racemic) | 1 (yes) |
| COc1ccc(C2CNC(=O)C2C(=O)Nc2ccccc2F)cc1F (racemic) | 0 (no) |
| O=C1NCC(c2ccc(Cl)cc2)C1C(=O)Nc1ccccc1Cl (centres unmarked) | 0 (no) |
| O=C1NCC(c2ccc3c(c2)OC(F)(F)O3)C1C(=O)Nc1ccccc1F (racemic) | 1 (yes) |
| O=C1NCC(c2ccc(-c3ccccc3C(F)(F)F)cc2)C1C(=O)Nc1cccc(F)c1F (centres unmarked) | 0 (no) |

Kindly consider the entry below.
Inquiry: # check: Corn plant response rating (0 to 100 scale, 0 is no effect, 100 is complete control) of O=C1NCC(c2cccc(C3CC3)c2)C1C(=O)Nc1ccccc1F (racemic) is greater than or equal to 50
Reply text: 1 (yes)

====

System: crabgrass, large
test_summary: Test A pre-/postemergence herbicide test
Format: in vivo, Digitaria sanguinalis
stated_conditions: Postemergence, 125 g ai/ha; 0 to 100 scale, 0 no effect, 100 complete control
Hi! Just check whether Plant response rating, Crabgrass, Large is below 60. Below gives Fulfilled, equal or above gives Not fulfilled.

// known answers, use as guide
| compound | category_label |
| --- | --- |
| O=C1NCC(c2ccc(F)c(C(F)(F)F)c2)C1C(=O)Nc1ccccc1F (racemic) [Compound 76] | Not fulfilled |
| COc1cccc(NC(=O)C2C(=O)NCC2c2ccc(F)c(F)c2)n1 (stereo not drawn) [Compound 58] | Fulfilled |
| O=C1NCC(c2ccc(F)c(F)c2)C1C(=O)Nc1cccc(F)c1 (racemic) [Compound 12] | Not fulfilled |
| O=C1NCC(c2ccccc2)C1C(=O)Nc1cccc(F)c1F (stereo not drawn) [Compound 65] | Not fulfilled |

Inquiry: Does N#Cc1ccccc1NC(=O)C1C(=O)NCC1c1ccc(Cl)c(Cl)c1 (racemic) [Compound 15] have Plant response rating, Crabgrass, Large strictly under 60?
Reply text: Fulfilled

Inquiry: Does O=C1NCC(c2ccc(Cl)nc2)C1C(=O)Nc1ccccc1C(F)(F)F (stereo not drawn) [Compound 42] have Plant response rating, Crabgrass, Large strictly under 60?
Reply text: Fulfilled

Inquiry: Does O=C1NCC(c2cccc(C(F)(F)F)c2)C1C(=O)Nc1ccccc1F (racemic) [Compound 3] have Plant response rating, Crabgrass, Large strictly under 60?
Reply text: Not fulfilled

Inquiry: Does O=C1NCC(c2ccc(F)c(F)c2)C1C(=O)Nc1cccc2c1OC(F)(F)O2 (stereo not drawn) [Compound 57] have Plant response rating, Crabgrass, Large strictly under 60?
Reply text: Fulfilled

Inquiry: Does NC1=NCC(c2ccc(F)c(F)c2)C1C(=O)Nc1ccccc1F (stereo not drawn) [Compound 95] have Plant response rating, Crabgrass, Large strictly under 60?
Reply text: Not fulfilled

Inquiry: Does O=C1NCC(c2cccc(Br)c2)C1C(=O)Nc1ccccc1F (stereo not drawn) [Compound 66] have Plant response rating, Crabgrass, Large strictly under 60?
Reply text: Not fulfilled

Data provenance: patent US10294202B2
